So I've got a bunch of compounds here, and I need their pIC50 values.
target: Recombinant human HSD17B13 (Homo sapiens (Human)); assay: HSD17B13 rapid-fire mass spectrometry assay (RF/MS assay); details: inhibition of HSD17B13; LTB4 10 μM, NAD+ 0.5 mM, RT 3 h; IC50 ranges A-E
pIC50: −log10 of the molar value.

// worked examples, pIC50 included
compound	pIC50
COc1cc(C(=O)O)c(F)cc1NS(=O)(=O)c1csc(-c2ccc(-c3ccc(C(C)(F)F)cc3)cc2C(F)(F)F)n1 [Example 756]	> 7.00
COc1cc(C(=O)O)c(F)cc1NS(=O)(=O)c1csc(-c2ccc(-c3ccc(C45CC6C[C@H](C4)C[C@H](C6)C5)cc3)c(F)c2F)n1 [Example 739]	6.30 to 7.00
COc1cc(C(=O)O)ccc1NS(=O)(=O)c1csc(C#Cc2cccc(OC(F)(F)F)c2)n1 [Example 239]	> 7.00
COc1cc(C(=O)O)c(F)cc1NS(=O)(=O)c1csc(-c2ccc(C3=CCC(C)(C)CC3)c(OC(F)(F)F)c2)n1 [Example 537]	> 7.00
COc1cc(C(=O)O)c(F)cc1NS(=O)(=O)c1ccc2nc(-c3ccc(C4CCCCC4)cc3)sc2c1 [Example 661]	6.30 to 7.00
COc1cc(C(=O)O)c(F)cc1NS(=O)(=O)c1csc(-c2ccc(C3=CCC4(CC3)CC4)cc2)n1 [Example 758]	6.30 to 7.00

State the recorded pIC50 for every item in the following list.
1. O=C(O)c1ccc2c(c1)CCN2S(=O)(=O)c1ccccc1 [Example 13]
2. O=C(O)c1ccc(NS(=O)(=O)c2cnc(-c3ccc(F)cc3)s2)cc1-c1ccccc1 [Example 47]
3. COc1cc(C(=O)O)ccc1NS(=O)(=O)c1ccc(-c2ccccc2C(F)(F)F)s1 [Example 213]
4. COc1cc(C(=O)O)ccc1NS(=O)(=O)c1coc(-c2ccc(C3CCCCC3)cc2)n1 [Example 419]
5. COc1cc(C(=O)O)ccc1NS(=O)(=O)c1cccc(-c2ccc(C3=CCC(C(F)(F)F)CC3)cc2)c1F (stereo not shown) [Example 471]

1. 4.00 to 6.00
2. 4.00 to 6.00
3. 6.30 to 7.00
4. 6.30 to 7.00
5. 6.30 to 7.00

* * *

biological target: Recombinant human HSD17B13 (Homo sapiens (Human), UniProt Q7Z5P4); experiment: HSD17B13 rapid-fire mass spectrometry assay (RF/MS assay); settings: inhibition of HSD17B13; LTB4 10 μM, NAD+ 0.5 mM, RT 3 h; IC50 ranges A-E
Sequence (Q7Z5P4 20-300): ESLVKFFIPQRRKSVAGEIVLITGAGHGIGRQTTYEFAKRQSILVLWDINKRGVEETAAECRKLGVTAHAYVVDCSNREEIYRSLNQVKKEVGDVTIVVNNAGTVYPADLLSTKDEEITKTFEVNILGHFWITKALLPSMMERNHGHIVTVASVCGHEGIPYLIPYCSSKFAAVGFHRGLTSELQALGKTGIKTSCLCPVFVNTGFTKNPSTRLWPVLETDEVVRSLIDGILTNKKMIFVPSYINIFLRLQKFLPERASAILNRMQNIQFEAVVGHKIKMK
pIC50: −log10 of the molar value.
attribute-measured: pIC50

Use the examples below as a reference point.
mol	attribute-measured	value-measured
COc1cc(C(=O)O)c(F)cc1NS(=O)(=O)c1csc(-c2ccc(C3CCC(C)(C)CC3)cc2C)n1	pIC50	> 7.00
COc1cc(C(=O)O)ccc1NS(=O)(=O)c1ccc(-c2cccc(F)c2)s1	pIC50	> 7.00
O=C(O)c1ccc2cc(NS(=O)(=O)c3cnc(-c4ccc(F)cc4)s3)ccc2c1	pIC50	4.00 to 6.00
COc1cc(C(=O)O)ccc1NS(=O)(=O)c1ccc(-c2csc(C)n2)cc1	pIC50	4.00 to 6.00
CCC[C@H]1CC[C@H](c2ccc(-c3nc(S(=O)(=O)Nc4ccc(C(=O)O)cc4OC)cs3)cc2)CC1	pIC50	> 7.00

Each molecule below has a reported value. Please supply its pIC50.
1. CC[C@H]1CC[C@H](c2ccc(-c3cccc(S(=O)(=O)Nc4cc(F)c(C(=O)O)cc4OC)c3F)cc2)CC1
2. COc1cc(C(=O)O)ccc1NS(=O)(=O)c1cnc(-c2ccc(C3CCCCC3)cc2)s1
3. COc1cc(C(=O)O)ccc1NS(=O)(=O)c1ccc(-c2cnn(C3CCCCC3)c2)cc1F
4. COc1cc(C(=O)O)ccc1NS(=O)(=O)c1csc(-c2ccc(N3CCCCC3)cc2)n1
5. COc1cc(C(=O)O)c(F)cc1NS(=O)(=O)c1cnc(-c2ccc(-c3ccc(C(F)(F)C(F)(F)F)cc3)cc2)s1
6. COc1cc(C(=O)O)c(F)cc1NS(=O)(=O)c1csc(-c2ccc(C3CCC(C)(C)CC3)cc2C(F)(F)F)n1

1: > 7.00; 2: > 7.00; 3: 6.30 to 7.00; 4: 6.30 to 7.00; 5: > 7.00; 6: > 7.00

* * *

target: Recombinant human HSD17B13 (Homo sapiens (Human)); assay: HSD17B13 rapid-fire mass spectrometry assay (RF/MS assay); details: inhibition of HSD17B13; LTB4 10 μM, NAD+ 0.5 mM, RT 3 h; IC50 ranges A-E
pIC50: −log10 of the molar value.
attribute-measured: pIC50

Reference set (3 entries):
compound	value-measured
COc1cc(C(=O)O)c(F)cc1NS(=O)(=O)c1cnc(-c2ccc([C@H]3CC[C@H](C(F)(F)F)CC3)cc2)s1 [Example 725]	> 7.00
COc1cc(C(=O)O)c(C2=CCCC2)cc1NS(=O)(=O)c1csc(-c2ccc(C3CCC(C)(C)CC3)cc2C(F)(F)F)n1 [Example 698]	4.00 to 6.00
COc1ccc(-c2ccc(S(=O)(=O)Nc3ccc(C(=O)O)cc3OC)s2)cc1 [Example 179]	6.30 to 7.00

Provide each entry's pIC50 from the list below.
1. COc1cc(C(=O)O)c(F)cc1NS(=O)(=O)c1cccc(-c2ccc([C@H]3CC[C@@H](C(C)(C)C)CC3)cc2)c1F [Example 500]
2. COc1cc(C(=O)O)ccc1NS(=O)(=O)c1ccc(-c2ccc(C3(O)CCC(C)(C)CC3)cc2)s1 [Example 430]

["> 7.00", "6.30 to 7.00"]

// each compound listed below needs its pIC50
1. COc1cc(C(=O)O)ccc1NS(=O)(=O)c1csc(N2CCN(c3ccc(C(F)(F)F)cc3)CC2)n1 [Example 272]
2. COc1cc(C(=O)O)ccc1NS(=O)(=O)c1ccc(-c2ccc(-c3ccc(O)cc3)cc2)s1 [Example 207]
3. COc1cc(C(=O)O)c(F)cc1NS(=O)(=O)c1csc(-c2ccc(C3=CCC(C)(C)CC3)cc2F)n1 [Example 510]

1. 6.30 to 7.00
2. 6.00 to 6.30
3. > 7.00

Value source: patent US12384753B2
